# Tested on: Setaia fabei (SETFA)
# Test Method Notes: Post-emergence efficacy, glasshouse spray test
# Format: in vivo
# Conditions Used: Setaria faberi, post-emergence, 312 h; Application Rate 500 g/Ha; evaluated after 13 days; read-out: Control of weed species after post-emergence application, SETFA (100=total damage to plant; 0=no damage to plant)

Smiles Record: O=S(=O)([O-])CC[n+]1ccc(-c2ncco2)cn1
System Tested: Setaia fabei (SETFA)
pest or weed control at 500 g/ha: 60%
--
Smiles Record: O=S(=O)([O-])OCC[n+]1ccc(-c2nccs2)cn1
System Tested: Setaia fabei (SETFA)
pest or weed control at 500 g/ha: 70%
--
Smiles Record: Cc1cc(-c2cc[n+](CCS(=O)(=O)[O-])nc2)sn1
System Tested: Setaia fabei (SETFA)
pest or weed control at 500 g/ha: 60%
--
Smiles Record: O=C(O)C[n+]1ccc(-c2nccs2)cn1
System Tested: Setaia fabei (SETFA)
pest or weed control at 500 g/ha: 10%
--
Smiles Record: Nc1nnc(-c2cc[n+](CCC(=O)O)nc2)s1
System Tested: Setaia fabei (SETFA)
pest or weed control at 500 g/ha: 90%
--
Smiles Record: O=P(O)(O)CCC[n+]1ccc(-c2ncco2)cn1
System Tested: Setaia fabei (SETFA)
pest or weed control at 500 g/ha: 50%
--
Smiles Record: O=C(O)CC[n+]1ccc(-c2cscn2)cn1
System Tested: Setaia fabei (SETFA)
pest or weed control at 500 g/ha: 30%
--
Smiles Record: Cn1cnc(-c2cc[n+](CCS(=O)(=O)[O-])nc2)n1
System Tested: Setaia fabei (SETFA)
pest or weed control at 500 g/ha: 90%
--
Smiles Record: O=S(=O)([O-])CC[n+]1ccc(-c2cccs2)cn1
System Tested: Setaia fabei (SETFA)
pest or weed control at 500 g/ha: 10%
--
Smiles Record: O=C(O)c1ccccc1C[n+]1ccc(-c2ncco2)cn1
System Tested: Setaia fabei (SETFA)
pest or weed control at 500 g/ha: 20%
